target_or_system: Voltage-gated potassium channel subunit beta-2 (Rattus norvegicus)
test_protocol: inhibitors of rat Kvbeta2 reductase activity – biochemical, NADPH fluorescence, primary screen (AID 622);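 also: slope of raw intensity against log time taken from 70 to 1610 s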
experimental_parameters: recombinant KvBeta, 4-cyanobenzaldehyde reduction, at 10 µM, stronger effect = higher value
fluorescence slope below -0.4 gives Not met; fluorescence slope at or above it gives Met.

compound: Cn1c(=O)[nH]c(=O)c2c1nc(N1CCOCC1)n2CC(O)COc1ccc2ccccc2c1 (stereo not given)
class_assignment: Not met
--
compound: CCN(CC)C(=O)CSc1nc2ccccc2c(=O)n1CCC(=O)NCc1ccc(F)cc1
class_assignment: Not met
--
compound: O=C(CSc1nc2ccccc2c(=O)n1Cc1ccco1)NCc1ccccc1
class_assignment: Not met
--
compound: CCN(CC(=O)NCc1cccs1)C(=O)c1cc(S(=O)(=O)N2CCOCC2)ccc1C
class_assignment: Not met
--
compound: Cc1ccc(C)n1-c1ccc(N2CCOCC2)cc1
class_assignment: Met
--
compound: Cc1cc(C)n2nc(S(=O)(=O)N(C)Cc3ccccc3)nc2n1
class_assignment: Met
--
compound: COC(=O)C1=C(C)NC(C)=C(C(=O)OC)C1c1cc2cc(C)ccc2[nH]c1=O
class_assignment: Not met
--
compound: COc1ccc(/C=N/n2c(SC)nnc2-c2ccccc2)cc1C
class_assignment: Met
--
compound: O=S(=O)(c1ccc(OCC(O)CN2CCC(Cc3ccccc3)CC2)cc1)N1CCOCC1 (stereo not given)
class_assignment: Not met

###

test_protocol: TLR3 IRF3 reporter activation blockers – cell-based, poly I:C stimulus, luciferase, 10K MLSCN set, primary screen (AID 602277)
experimental_parameters: HEK293-TLR3 RL24 IRF3 luciferase reporter, at 10 µM, stronger effect = higher value
quantity_kind: inhibition (%)

molecule: CC(=O)c1cccc(NC(=O)N2C3CCC2CC(O)(c2cccnc2)C3)c1 (stereo unspecified)
quantity_kind: inhibition
assay_result: 16.5

molecule: CCOC(=O)N1CCC(NC(=O)C2CCCN(C(=O)c3cc4sccc4n3C)C2)CC1 (stereo unspecified)
quantity_kind: inhibition
assay_result: 25.3

molecule: COc1ccc(S(=O)(=O)N2CCCC2C(=O)Nc2ccc(O)cc2)cc1 (stereo unspecified)
quantity_kind: inhibition
assay_result: 12.2

molecule: COC(=O)C1C2C=CC3(CN(CC4CCCO4)C(=O)C13)O2 (stereo unspecified)
quantity_kind: inhibition
assay_result: 11.6

molecule: N#CCCN(Cc1cccnc1)C(=O)Nc1ccc(Cl)c(Cl)c1
quantity_kind: inhibition
assay_result: 29.1

molecule: Cc1cc(C(=O)Nc2c(C)n(C)n(-c3ccccc3)c2=O)c(C)o1
quantity_kind: inhibition
assay_result: 14.7

###

target_or_system: Voltage-gated potassium channel subunit beta-2 (Rattus norvegicus)
test_protocol: inhibitors of rat Kvbeta2 reductase activity – biochemical, NADPH fluorescence, primary screen (AID 622);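 also: slope of raw intensity against log time taken from 70 to 1610 s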
experimental_parameters: recombinant KvBeta, 4-cyanobenzaldehyde reduction, at 10 µM, stronger effect = higher value
fluorescence slope below -0.5 gives false (0); fluorescence slope at or above it gives true (1).

compound: Cc1ccc(S(=O)(=O)NCC(c2cccnc2)N(C)C)cc1 (configuration not stated)
target_or_system: Voltage-gated potassium channel subunit beta-2 (Rattus norvegicus)
class_assignment: true (1)
//
compound: O=S(=O)(NC1=NCCC1)c1cccs1
target_or_system: Voltage-gated potassium channel subunit beta-2 (Rattus norvegicus)
class_assignment: true (1)
//
compound: Cc1ccc(C)c(N2C(=O)CN=C2Nc2ccccc2Cl)c1
target_or_system: Voltage-gated potassium channel subunit beta-2 (Rattus norvegicus)
class_assignment: false (0)
//
compound: CCCC(=O)Nc1ccc(C(=O)O)cc1NC(=O)CCC
target_or_system: Voltage-gated potassium channel subunit beta-2 (Rattus norvegicus)
class_assignment: true (1)
//
compound: CCN(CC)C(=O)COc1ccc2oc(C)c(C(=O)OC(C)C)c2c1
target_or_system: Voltage-gated potassium channel subunit beta-2 (Rattus norvegicus)
class_assignment: true (1)
//
compound: COC(=O)c1ccc(CSc2nnnn2Cc2ccccc2)cc1
target_or_system: Voltage-gated potassium channel subunit beta-2 (Rattus norvegicus)
class_assignment: true (1)
//
compound: O=C(COc1ccccc1)Nc1ccccc1N1CCN(c2ccccc2)CC1
target_or_system: Voltage-gated potassium channel subunit beta-2 (Rattus norvegicus)
class_assignment: false (0)
//
compound: Cc1cc(C)nc(N2CCCC(C(=O)Nc3nc4ccc(S(C)(=O)=O)cc4s3)C2)n1 (configuration not stated)
target_or_system: Voltage-gated potassium channel subunit beta-2 (Rattus norvegicus)
class_assignment: true (1)
//
compound: CC(C)(C)n1ncc2c(=O)n(CC(=O)c3ccccc3)cnc21
target_or_system: Voltage-gated potassium channel subunit beta-2 (Rattus norvegicus)
class_assignment: false (0)
//
compound: CC(=O)NCCn1ccc2ccccc21
target_or_system: Voltage-gated potassium channel subunit beta-2 (Rattus norvegicus)
class_assignment: false (0)

###

# NADPH fluorescence slope listing for each entry below
target_or_system: Voltage-gated potassium channel subunit beta-2 (Rattus norvegicus) (UniProt P62483)
Sequence (P62483 whole entry, looked up): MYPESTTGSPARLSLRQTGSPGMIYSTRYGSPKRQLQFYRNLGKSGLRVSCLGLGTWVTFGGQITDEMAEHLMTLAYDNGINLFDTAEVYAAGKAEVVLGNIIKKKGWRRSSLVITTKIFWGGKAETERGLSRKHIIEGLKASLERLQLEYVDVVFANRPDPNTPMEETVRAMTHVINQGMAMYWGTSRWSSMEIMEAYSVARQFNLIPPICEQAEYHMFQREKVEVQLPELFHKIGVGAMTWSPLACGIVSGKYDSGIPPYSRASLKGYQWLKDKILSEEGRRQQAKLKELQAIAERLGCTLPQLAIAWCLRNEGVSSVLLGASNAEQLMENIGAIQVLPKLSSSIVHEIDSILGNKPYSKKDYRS
test_protocol: enhancers of rat Kvbeta2 NADPH turnover – biochemical, NADPH fluorescence, primary screen (AID 623);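 also: fluorescence intensity change per second fitted from 20 to 320 s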
experimental_parameters: Recombinant KvBeta, NADPH fluorescence decrease slope, 10 min; at 10 µM; stronger effect = lower value

compound: O=C(CN(c1ccc(F)cc1)S(=O)(=O)c1ccc2c(c1)OCCO2)Nc1cccnc1
target_or_system: Voltage-gated potassium channel subunit beta-2 (Rattus norvegicus) (UniProt P62483)
NADPH fluorescence slope: -4.5e-05
--
compound: O=C(NCc1cccnc1)c1cccc(C(F)(F)F)c1
target_or_system: Voltage-gated potassium channel subunit beta-2 (Rattus norvegicus) (UniProt P62483)
NADPH fluorescence slope: -2.9e-05
--
compound: CN(Cc1cnn(C)c1)C(=O)c1cc2ccccc2oc1=O
target_or_system: Voltage-gated potassium channel subunit beta-2 (Rattus norvegicus) (UniProt P62483)
NADPH fluorescence slope: -5.1e-05
--
compound: CCn1c(CCNC(=O)c2cccs2)nnc1SCC(=O)c1ccc(OC)cc1
target_or_system: Voltage-gated potassium channel subunit beta-2 (Rattus norvegicus) (UniProt P62483)
NADPH fluorescence slope: 2.4e-05
--
compound: COc1cccc(NC(=O)c2ccccc2NS(C)(=O)=O)c1
target_or_system: Voltage-gated potassium channel subunit beta-2 (Rattus norvegicus) (UniProt P62483)
NADPH fluorescence slope: -3.8e-05
--
compound: CCC(=O)Nc1cc(Cl)ccc1N1CCN(C(=O)CC)CC1
target_or_system: Voltage-gated potassium channel subunit beta-2 (Rattus norvegicus) (UniProt P62483)
NADPH fluorescence slope: -1.2e-05
--
compound: O=C(CCN1CCN(CCO)CC1)Nc1ccc(OCc2ccccc2)cc1
target_or_system: Voltage-gated potassium channel subunit beta-2 (Rattus norvegicus) (UniProt P62483)
NADPH fluorescence slope: -2.1e-05
--
compound: CCOC(=O)N1CCN(C(=O)CN(C2CCCCC2)S(=O)(=O)c2ccc(F)cc2)CC1
target_or_system: Voltage-gated potassium channel subunit beta-2 (Rattus norvegicus) (UniProt P62483)
NADPH fluorescence slope: -7.3e-05
--
compound: CCCCOc1ccccc1NC(=O)c1ccco1
target_or_system: Voltage-gated potassium channel subunit beta-2 (Rattus norvegicus) (UniProt P62483)
NADPH fluorescence slope: -4.6e-05
--
compound: CCOC(=O)c1nnc2cc(-c3ccc(Br)cc3)nn2c1C
target_or_system: Voltage-gated potassium channel subunit beta-2 (Rattus norvegicus) (UniProt P62483)
NADPH fluorescence slope: -6.5e-06
--
compound: COc1ccccc1C(=O)Nc1ccccc1C(=O)N1CCCC1
target_or_system: Voltage-gated potassium channel subunit beta-2 (Rattus norvegicus) (UniProt P62483)
NADPH fluorescence slope: -5.2e-05
--
compound: COc1cc2c(cc1OC)C(/C(C#N)=N\O)=NC(C)(C)C2
target_or_system: Voltage-gated potassium channel subunit beta-2 (Rattus norvegicus) (UniProt P62483)
NADPH fluorescence slope: -2e-05
--
compound: CC1(C)Cc2c(c(=S)nc(-c3ccccc3)n2CCO)CO1
target_or_system: Voltage-gated potassium channel subunit beta-2 (Rattus norvegicus) (UniProt P62483)
NADPH fluorescence slope: -5.3e-05
--
compound: Cc1cccn2c(=O)c3cc(C#N)c(=NC(=O)c4ccncc4)n(Cc4ccco4)c3nc12
target_or_system: Voltage-gated potassium channel subunit beta-2 (Rattus norvegicus) (UniProt P62483)
NADPH fluorescence slope: -1.2e-05
--
compound: O=C1NC(c2ccccc2)(C(F)(F)F)SC2=CCCCCN12 (stereo not drawn)
target_or_system: Voltage-gated potassium channel subunit beta-2 (Rattus norvegicus) (UniProt P62483)
NADPH fluorescence slope: 5e-05
--
compound: Cc1[nH]c(=O)[nH]c(=O)c1S(=O)(=O)N1CCCC(C(=O)NCc2ccco2)C1 (stereo not drawn)
target_or_system: Voltage-gated potassium channel subunit beta-2 (Rattus norvegicus) (UniProt P62483)
NADPH fluorescence slope: -2.3e-05
--
compound: O=C(Nc1cccc(NC(=O)c2cccnc2)c1)c1cccnc1
target_or_system: Voltage-gated potassium channel subunit beta-2 (Rattus norvegicus) (UniProt P62483)
NADPH fluorescence slope: -1.6e-05
--
compound: COc1ccc(S(=O)(=O)NCCSCc2ccco2)cc1Cl
target_or_system: Voltage-gated potassium channel subunit beta-2 (Rattus norvegicus) (UniProt P62483)
NADPH fluorescence slope: -6.4e-06
--
compound: COc1ccc(OC)c(-n2nnnc2SCC(=O)NCc2ccc3c(c2)OCO3)c1
target_or_system: Voltage-gated potassium channel subunit beta-2 (Rattus norvegicus) (UniProt P62483)
NADPH fluorescence slope: -1.7e-05
--
compound: Cc1ccc(C)c(N2CCN(CCCNC(=O)Cn3cc4c(n3)CCC(C)C4)CC2)c1 (stereo not drawn)
target_or_system: Voltage-gated potassium channel subunit beta-2 (Rattus norvegicus) (UniProt P62483)
NADPH fluorescence slope: -2.4e-05
--
compound: COc1cccc(C2CC(c3ccc(C)cc3)Nc3nc(N)nn32)c1 (stereo not drawn)
target_or_system: Voltage-gated potassium channel subunit beta-2 (Rattus norvegicus) (UniProt P62483)
NADPH fluorescence slope: 4e-05
--
compound: CCCOc1cccc(NC(=O)c2c(-c3ccccc3)noc2C)c1
target_or_system: Voltage-gated potassium channel subunit beta-2 (Rattus norvegicus) (UniProt P62483)
NADPH fluorescence slope: 5.8e-06
--
compound: Cc1cc(=O)oc2cc(OCC(=O)OCC(=O)N3CCc4ccccc43)ccc12
target_or_system: Voltage-gated potassium channel subunit beta-2 (Rattus norvegicus) (UniProt P62483)
NADPH fluorescence slope: -5.7e-05
